target.desc: wild type AKIII (Escherichia coli, UniProt P08660)
Construct: made in house; host or cells: E. coli Gif106M1 transformed with pBT436 (the plasmid of the cloned wild type lysC gene)
Sequence (P08660 2-449): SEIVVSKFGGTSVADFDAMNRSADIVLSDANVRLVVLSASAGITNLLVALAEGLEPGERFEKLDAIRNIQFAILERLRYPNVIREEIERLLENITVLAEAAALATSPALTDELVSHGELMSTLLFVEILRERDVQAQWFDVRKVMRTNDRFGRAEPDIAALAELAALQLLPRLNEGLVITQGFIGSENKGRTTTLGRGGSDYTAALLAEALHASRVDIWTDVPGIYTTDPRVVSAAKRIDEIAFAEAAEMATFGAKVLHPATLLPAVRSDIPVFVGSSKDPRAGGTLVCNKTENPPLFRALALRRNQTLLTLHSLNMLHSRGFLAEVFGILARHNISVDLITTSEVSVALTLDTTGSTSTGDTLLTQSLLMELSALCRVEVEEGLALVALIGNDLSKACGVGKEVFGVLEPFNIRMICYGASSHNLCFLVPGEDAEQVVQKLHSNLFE
assay.procedure: Inhibition of wild type AKIII aspartokinase activity by lysine
Assay type: biochemical, E. coli
condition.context: wild type AKIII from cloned lysC (pBT436); read-out: lysine concentration giving 50% inhibition of wild type AKIII
pIC50: −log10 of the molar value.
assay.metric: pIC50

Give me measured pIC50, please, for this compound: "NCCCC[C@H](N)C(=O)O" 3.40 to 3.52
